Please provide measured pKd for the entries that follow.
target: C. armatus CYP51 (Coryphaenoides armatus); test: Spectral titration of C. armatus CYP51 with sterol substrates (type I response); conditions: read-out: Kd (apparent spectral dissociation constant, sterol substrate); P450 2 µM, titration step 0.25 µM
Answers are plain numbers, as −log10 of the molar value.

Solved entries (count: 2):
C=C(CC[C@@H](C)[C@H]1CC[C@@]2(C)C3=C(CC[C@]12C)[C@@]1(C)CC[C@H](O)[C@@H](C)[C@@H]1CC3)C(C)C [Obtusifoliol, obtusifoliol]	6.25
C=C(CC[C@@H](C)C1CC[C@@]2(C)C3=C(CC[C@]12C)[C@@]1(C)CC[C@H](O)C(C)(C)C1CC3)C(C)C (stereo partly drawn)	5.99

Item CC(C)=CCC[C@@H](C)[C@H]1CC[C@@]2(C)C3=C(CC[C@]12C)[C@@]1(C)CC[C@H](O)C(C)(C)[C@@H]1CC3 [Lanosterol] with C. armatus CYP51 (Coryphaenoides armatus) - pKd? 6.11

====

biological target: C. armatus CYP51 (Coryphaenoides armatus); assay: Spectral titration with azole-based ligands (type II response); conditions: read-out: apparent dissociation constant (Kd), azole ligand; P450 0.5 µM, titration step 0.1 µM
Please provide measured Kd for the entries that follow.
Quick note: number first, unit second.

Solved entries (count: 2):
C[C@@H](c1ncncc1F)[C@](O)(Cn1cncn1)c1ccc(F)cc1F	610 nM
CCC(C)n1ncn(-c2ccc(N3CCN(c4ccc(OCC5COC(Cn6cncn6)(c6ccc(Cl)cc6Cl)O5)cc4)CC3)cc2)c1=O (stereo not drawn)	620 nM

The record that follows has no Kd shown yet.
Item CC(=O)N1CCN(c2ccc(OCC3COC(Cn4ccnc4)(c4ccc(Cl)cc4Cl)O3)cc2)CC1 (stereo not drawn) with C. armatus CYP51 (Coryphaenoides armatus) - Kd? 10 nM

====

target: C. armatus CYP51 (Coryphaenoides armatus, UniProt Z9AQN8BZD8); test: Spectral titration with azole-based ligands (type II response)
Sequence (Z9AQN8BZD8 6-449 limits assumed): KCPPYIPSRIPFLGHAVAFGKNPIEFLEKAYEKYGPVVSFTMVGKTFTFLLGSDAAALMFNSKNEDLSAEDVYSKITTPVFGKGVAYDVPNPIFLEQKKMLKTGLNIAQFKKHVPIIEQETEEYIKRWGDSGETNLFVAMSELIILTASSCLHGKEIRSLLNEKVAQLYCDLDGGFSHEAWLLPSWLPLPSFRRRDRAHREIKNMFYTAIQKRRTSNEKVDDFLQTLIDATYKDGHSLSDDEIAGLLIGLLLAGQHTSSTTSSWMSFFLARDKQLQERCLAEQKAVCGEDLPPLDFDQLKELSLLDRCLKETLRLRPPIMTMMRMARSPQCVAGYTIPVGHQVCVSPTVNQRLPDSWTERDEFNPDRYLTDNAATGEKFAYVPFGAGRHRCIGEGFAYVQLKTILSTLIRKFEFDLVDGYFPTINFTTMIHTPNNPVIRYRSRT
readoutKind: pKd
Numbers only, as −log10 of the molar value.

Consider the compound shown here: O=C(N[C@@H](Cn1ccnc1)c1ccc(-c2ccc(F)cc2)cc1F)c1ccc(-c2nnc(-c3ccccc3)o2)cc1 What is its recorded pKd? 7.70
